As shown below, each of these compounds has a reported pIC50 value.
system: A549; conditions: human, 72 h
Lab note: report pIC50 as minus log10 of the concentration in molar units, number only.

q: Give its pIC50 value. Item: O=C(NO)c1cc(Cn2c(=O)n(CCc3ccccc3)c(=O)c3ccccc32)cs1
a: 5.20

q: Give its pIC50 value. Item: Cc1ccc2c(=O)n(CCc3ccccc3)c(=O)n(Cc3ccc(C(=O)NO)cc3)c2c1
a: 5.13

q: Give its pIC50 value. Item: O=C(NO)c1ccc(Cn2c(=O)n(CCc3ccccc3)c(=O)c3ccc(Cl)cc32)cc1
a: 5.64

q: Give its pIC50 value. Item: O=C(Cc1ccc(Cn2c(=O)n(CCc3ccccc3)c(=O)c3ccccc32)cc1)NO
a: 5.15

q: Give its pIC50 value. Item: N#Cc1ccc2c(=O)n(CCc3ccccc3)c(=O)n(Cc3ccc(CC(=O)NO)cc3)c2c1
a: 5.38

Others:
q: Give its pIC50 value. Item: O=C(NO)c1ccc(Cn2c(=O)n(CCc3cccs3)c(=O)c3ccccc32)cc1
a: 5.33

q: Give its pIC50 value. Item: O=C(Cc1ccc(Cn2c(=O)n(CCc3ccccc3)c(=O)c3ccccc32)c(F)c1)NO
a: 5.53

q: Give its pIC50 value. Item: O=C(NO)c1ccc(Cn2c(=O)n(CCc3ccccc3)c(=O)c3ccc(O)cc32)cc1
a: 5.09

q: Give its pIC50 value. Item: O=C(NO)c1ccc(Cn2c(=O)n(CCc3ccc(F)cc3)c(=O)c3ccccc32)cc1
a: 5.20

q: Give its pIC50 value. Item: O=C(NO)c1ccc(Cn2c(=O)n(CCc3cccc(F)c3)c(=O)c3ccccc32)cc1
a: 5.34

====

As shown below, each of these compounds has a reported pIC50 value.
tested on: Vero; test: Cell proliferation assay MTT, Vero normal cells; details: read-out: Cytotoxicity IC50 Monkey normal Vero, 72 hr treated
Lab note: report pIC50 as minus log10 of the concentration in molar units, number only.

q: Look up pIC50 with Vero for this compound: O=C(CCCCCCC(=O)Nc1ccccc1)NO [SAHA, reference compound]
a: 4.57

Others:
q: Look up pIC50 with Vero for this compound: CN1CCc2c(c3ccccc3n2Cc2ccc(C(=O)NO)cc2)C1 [Tubastatin A, reference compound]
a: 4.40

====

system: PANC1; details: human, 72 h
As shown below, each of these compounds has a reported IC50 value.
Provide the reading as a plain figure in µM.

q: Give its IC50 value. Item: O=C(NO)c1ccc(Cn2c(=O)n(Cc3ccccc3)c(=O)c3ccccc32)cc1
a: 6.13

Others:
q: Give its IC50 value. Item: O=C(NO)c1cc(Cn2c(=O)n(CCc3ccccc3)c(=O)c3ccccc32)cs1
a: 8.13

q: Give its IC50 value. Item: N#Cc1ccc2c(=O)n(CCc3ccccc3)c(=O)n(Cc3ccc(CC(=O)NO)cc3)c2c1
a: 5.12

q: Give its IC50 value. Item: O=C(NO)c1cccc(Cn2c(=O)n(CCc3ccccc3)c(=O)c3ccccc32)c1
a: 5.12

====

UniProt Q9UBN7 data, read-out pIC50
Sequence (Q9UBN7 whole entry): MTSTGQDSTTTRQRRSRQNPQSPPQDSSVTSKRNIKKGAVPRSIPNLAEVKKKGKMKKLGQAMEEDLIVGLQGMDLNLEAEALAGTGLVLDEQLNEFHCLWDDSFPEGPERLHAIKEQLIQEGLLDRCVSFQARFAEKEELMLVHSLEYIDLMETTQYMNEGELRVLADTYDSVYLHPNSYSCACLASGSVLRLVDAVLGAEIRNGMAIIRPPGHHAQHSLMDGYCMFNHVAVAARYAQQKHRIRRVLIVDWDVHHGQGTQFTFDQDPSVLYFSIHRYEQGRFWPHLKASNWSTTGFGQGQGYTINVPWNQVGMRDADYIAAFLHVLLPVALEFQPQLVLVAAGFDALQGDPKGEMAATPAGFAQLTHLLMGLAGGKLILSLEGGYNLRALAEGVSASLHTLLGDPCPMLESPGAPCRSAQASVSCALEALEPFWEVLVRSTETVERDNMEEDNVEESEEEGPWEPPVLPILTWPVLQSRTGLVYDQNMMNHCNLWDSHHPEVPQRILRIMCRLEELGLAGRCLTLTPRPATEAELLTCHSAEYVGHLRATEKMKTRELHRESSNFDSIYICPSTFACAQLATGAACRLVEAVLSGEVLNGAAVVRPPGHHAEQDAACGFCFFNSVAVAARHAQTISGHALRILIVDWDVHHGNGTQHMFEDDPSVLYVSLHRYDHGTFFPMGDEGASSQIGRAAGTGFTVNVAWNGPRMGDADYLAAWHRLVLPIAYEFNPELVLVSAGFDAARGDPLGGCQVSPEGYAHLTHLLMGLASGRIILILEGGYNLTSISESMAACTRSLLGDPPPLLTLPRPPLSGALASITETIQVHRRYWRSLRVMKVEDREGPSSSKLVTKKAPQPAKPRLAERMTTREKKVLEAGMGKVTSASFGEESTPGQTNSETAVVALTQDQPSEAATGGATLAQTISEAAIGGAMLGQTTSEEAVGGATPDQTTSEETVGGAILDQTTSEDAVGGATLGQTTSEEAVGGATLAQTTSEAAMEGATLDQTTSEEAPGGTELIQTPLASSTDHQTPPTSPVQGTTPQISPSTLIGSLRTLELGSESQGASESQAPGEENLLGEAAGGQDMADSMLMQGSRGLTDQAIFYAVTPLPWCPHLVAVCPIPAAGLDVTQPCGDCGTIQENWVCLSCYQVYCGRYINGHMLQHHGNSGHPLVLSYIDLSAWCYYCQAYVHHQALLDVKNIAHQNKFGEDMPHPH
Lab note: report pIC50 as minus log10 of the concentration in molar units, number only.

q: Look up pIC50 with UniProt Q9UBN7 for this compound: O=C(NO)c1ccc(Cn2c(=O)n(CCc3ccccc3)c(=O)c3cccnc32)cc1 [Compound 12]
a: 7.55

q: Look up pIC50 with UniProt Q9UBN7 for this compound: O=C(NO)c1ccc(Cn2c(=O)n(CCc3cccs3)c(=O)c3ccccc32)cc1 [Compound 24]
a: 7.96

q: Look up pIC50 with UniProt Q9UBN7 for this compound: O=C(NO)c1ccc(Cn2c(=O)n(CCc3ccccc3)c(=O)c3cc(Cl)ccc32)cc1 [Compound 9]
a: 7.46

q: Look up pIC50 with UniProt Q9UBN7 for this compound: O=C(NO)c1ccc(Cn2c(=O)n(CCc3ccc(N4CCOCC4)cc3)c(=O)c3ccccc32)cc1 [Compound 30]
a: 7.85

====

tested on: HL60; assay: Cell proliferation assay MTT, HL60; conditions: read-out: Cytotoxicity IC50 Leukemia HL60, 72 hr treated
As shown below, each of these compounds has a reported IC50 value.
Provide the reading as a plain figure in nM.

q: Look up IC50 with HL60 for this compound: N#Cc1ccc2c(=O)n(CCc3ccccc3)c(=O)n(Cc3ccc(CC(=O)NO)cc3)c2c1
a: 1250

q: Look up IC50 with HL60 for this compound: COc1ccccc1CCn1c(=O)c2ccccc2n(Cc2ccc(C(=O)NO)cc2)c1=O
a: 1220

q: Look up IC50 with HL60 for this compound: O=C(Cc1ccc(Cn2c(=O)n(CCc3ccccc3)c(=O)c3ccccc32)cc1)NO
a: 2770

q: Look up IC50 with HL60 for this compound: O=C(CCCCCCC(=O)Nc1ccccc1)NO [SAHA, reference compound]
a: 1850

q: Look up IC50 with HL60 for this compound: O=C(Cc1ccc(Cn2c(=O)n(CCc3ccccc3)c(=O)c3ccccc32)c(F)c1)NO
a: 1680

q: Look up IC50 with HL60 for this compound: O=C(NO)c1ccc(Cn2c(=O)n(CCc3ccc(F)cc3)c(=O)c3ccccc32)cc1
a: 1370

q: Look up IC50 with HL60 for this compound: O=C(NO)c1ccc(Cn2c(=O)n(CCc3cccc(F)c3)c(=O)c3ccccc32)cc1
a: 3120

q: Look up IC50 with HL60 for this compound: O=C(NO)c1ccc(Cn2c(=O)n(CCc3ccccc3)c(=O)c3cc(F)ccc32)cc1
a: 2370

====

system: MOLM13; assay: Cell proliferation assay MTT, MOLM13; details: read-out: Cytotoxicity IC50 Leukemia MOLM13; MTT assay, 72 hr treated
As shown below, each of these molecules has a reported pIC50 value.
Lab note: report pIC50 as minus log10 of the concentration in molar units, number only.

Solved entries (count: 2):
q: Give its pIC50 value. Item: COc1ccccc1CCn1c(=O)c2ccccc2n(Cc2ccc(C(=O)NO)cc2)c1=O
a: 5.83

q: Give its pIC50 value. Item: O=C(NO)c1ccc(Cn2c(=O)n(CCc3ccccc3)c(=O)c3cc(Cl)ccc32)cc1
a: 5.55

Others:
q: Give its pIC50 value. Item: O=C(NO)c1ccc(Cn2c(=O)n(CCc3ccccc3)c(=O)c3ccc(C(F)(F)F)cc32)cc1
a: 6.04

q: Give its pIC50 value. Item: O=C(NO)c1ccc(Cn2c(=O)n(CCc3ccccc3)c(=O)c3ccccc32)cc1
a: 6.80

====

As shown below, each of these compounds has a reported pIC50 value.
system: HepG2; test: Cell proliferation assay MTT, HepG2; conditions: read-out: Cytotoxicity IC50 Liver HepG2, 72 hr treated
Lab note: report pIC50 as minus log10 of the concentration in molar units, number only.

q: Look up pIC50 with HepG2 for this compound: O=C(NO)c1ccc(Cn2c(=O)n(CCc3ccccc3)c(=O)c3ccccc32)cc1
a: 5.71

Others:
q: Look up pIC50 with HepG2 for this compound: COc1ccccc1CCn1c(=O)c2ccccc2n(Cc2ccc(C(=O)NO)cc2)c1=O
a: 5.15

q: Look up pIC50 with HepG2 for this compound: O=C(NO)c1ccc(Cn2c(=O)n(CCc3ccccc3)c(=O)c3cc(Cl)ccc32)cc1
a: 5.69

q: Look up pIC50 with HepG2 for this compound: O=C(NO)c1ccc(Cn2c(=O)n(CCc3ccccc3)c(=O)c3ccc(C(F)(F)F)cc32)cc1
a: 5.26

====

As shown below, each of these molecules has a reported IC50 at 72 h value.
assay: in vitro; details: human, FHs173We normal cells
Provide the reading as a plain figure in µM.

q: Give its IC50 at 72 h value. Item: O=C(NO)c1ccc(Cn2c(=O)n(CCc3ccccc3)c(=O)c3cc(Cl)ccc32)cc1
a: 70.3

q: Give its IC50 at 72 h value. Item: COc1ccccc1CCn1c(=O)c2ccccc2n(Cc2ccc(C(=O)NO)cc2)c1=O
a: 55.4

q: Give its IC50 at 72 h value. Item: O=C(NO)c1ccc(Cn2c(=O)n(CCc3ccccc3)c(=O)c3ccc(C(F)(F)F)cc32)cc1
a: 132

Kindly review the next molecule as well.
q: Give its IC50 at 72 h value. Item: O=C(NO)c1ccc(Cn2c(=O)n(CCc3ccccc3)c(=O)c3ccccc32)cc1
a: 83.2

====

experiment: in vitro; conditions: monkey, Vero normal cells
As shown below, each of these compounds has a reported IC50 at 72 h value.

Solved entries (count: 2):
q: Give its IC50 at 72 h value. Item: N#Cc1ccc2c(=O)n(CCc3ccccc3)c(=O)n(Cc3ccc(C(=O)NO)cc3)c2c1
a: > 10 µM

q: Give its IC50 at 72 h value. Item: COc1ccccc1CCn1c(=O)c2ccccc2n(Cc2ccc(C(=O)NO)cc2)c1=O
a: 96.9 µM

Others:
q: Give its IC50 at 72 h value. Item: O=C(NO)c1ccc(Cn2c(=O)n(CCc3ccccc3)c(=O)c3cc(Cl)ccc32)cc1
a: 77.5 µM

q: Give its IC50 at 72 h value. Item: O=C(NO)c1ccc(Cn2c(=O)n(CCc3ccccc3)c(=O)c3ccccc32)cc1
a: 91.4 µM

q: Give its IC50 at 72 h value. Item: O=C(NO)c1ccc(Cn2c(=O)n(CCc3ccccc3)c(=O)c3ccc(C(F)(F)F)cc32)cc1
a: 146 µM
